# Test system: BGC-823
# protocol.description: Cytotoxicity against human BGC823 cells
# Assay type: functional, cell-based
value.type: IC50 (nM)
Write down the numeric answer in nM and omit the unit.

[[record]]
structure_notation = "CC[C@@]1(O)C(=O)OCc2c1cc1n(c2=O)Cc2cc3ccccc3nc2-1"
measurement_target = "BGC-823"
value_type = "IC50"
observed_result = 210


q: Give the measured IC50 of `C=C1OC(=O)/C(=C/CCCCCCCCCCCCCCCCC)[C@H]1O` .
a: 130
